Tested on: MOLT-4
Assay: NCI tumour cell line growth inhibition, 48 h
Activity calls are given as the source filed them. Cut-off read from the data, not from the text of the source: active = GI50 up to about 1.1 µM and inactive = higher.
Please answer using one outcome listed in active, inactive

molecule	tested.system	qualitative.label
O=C(C=P(c1ccccc1)(c1ccccc1)c1ccccc1)c1ccc(-c2cccc([N+](=O)[O-])c2)s1	MOLT-4	inactive

Exercise: In this assay, the call recorded for NS(=O)(=O)c1ccc(C(=O)O)cc1 [CARZENIDE] was what?
Solution: inactive

Exercise: In this assay, the call recorded for `O=C1NC(=O)C(=O)C(c2nc3ccccc3s2)C1=O` was what?
Solution: inactive

---

Tested on: NCI-H23
Experiment: NCI tumour cell line growth inhibition, 48 h
Active and inactive are the calls of the source. Cut-off read from the data, not from the text of the source: active = GI50 up to about 1.1 µM and inactive = higher.
GI50 reference

In the examples that follow, each entry is paired with its recorded GI50.
molecule	value.observed
O=c1/c(=C/c2cccc([N+](=O)[O-])c2)sc2nc3ccccc3n12	> 100 µM (inactive)
Nc1ccc(C2SCC(=O)N2NS(=O)(=O)c2cccc(C(=O)O)c2)cc1 (centres undefined)	> 100 µM (inactive)
O=C1/C(=C\c2c(-c3ccccc3)[nH]n(-c3ccccc3)c2=O)C(c2ccccc2)=NN1c1ccccc1	> 100 µM (inactive)
COC(=O)C1(Cc2ccc(C)cc2)Cc2c(C)cccc2C1=O (centres undefined)	35.3 µM (inactive)
COC(C/C(=C/CO[Si](C(C)C)(C(C)C)C(C)C)C(=O)Nc1ccccc1I)OC	32.9 µM (inactive)
O=C(CSCC(=O)N/N=C/c1cccc(C(F)(F)F)c1)N/N=C/c1cccc(C(F)(F)F)c1	> 100 µM (inactive)
CN(/N=C/c1ccccn1)C1=NCCCCN1	> 100 µM (inactive)
CCOC(=O)c1cnc2cc3cccccc3n2c1=O	> 100 µM (inactive)

Exercise: What value of measured GI50 is listed for CC(=O)N1C(C(=O)NC2CCCCC2)CSC1c1ccccc1 (centres undefined) ?
Solution: > 100 µM (inactive)

Exercise: What value of measured GI50 is listed for CC(SC(=S)N(C)C)C(=O)Nc1nnc(-c2ccc(Cl)cc2)o1 (centres undefined) ?
Solution: 54.2 µM (inactive)

Exercise: What value of measured GI50 is listed for C[N+](C)(C)CC(CC(=O)[O-])C1CC1 (centres undefined) ?
Solution: > 100 µM (inactive)

Exercise: What value of measured GI50 is listed for `CCSC1=N/C(=C\c2ccco2)C(NN)=N1` ?
Solution: > 50 µM (inactive)

Exercise: What value of measured GI50 is listed for `CC(C)SC(=S)Sc1c(Cl)c(Cl)nc(Cl)c1Cl` ?
Solution: 12.3 µM (inactive)

Exercise: What value of measured GI50 is listed for `Cc1[nH]c(=O)nc(S)c1C(=O)Nc1cccc2cc3ccccc3cc12` ?
Solution: > 100 µM (inactive)

Exercise: What value of measured GI50 is listed for CC(C(=O)c1ccc(Cl)cc1)C1OC(=O)C(Cl)=C1Cl (centres undefined) ?
Solution: 25.2 µM (inactive)

Exercise: What value of measured GI50 is listed for `CCCCCCCCNC(=O)C1=C(C)NC(C)=C(C(=O)NCCCCCCCC)C1` ?
Solution: > 100 µM (inactive)

---

Tested on: HOP-62
Test: NCI tumour cell line growth inhibition, 48 h
Active and inactive are the calls of the source. No stated cut-off is given here; in the data, active = GI50 up to about 1.1 µM and inactive = higher.
Please answer using one outcome listed in y = active, n = inactive

Below, 10 compounds whose answers are already recorded.
compound	qualitative.label
CC(C)NC(=O)OCCN=C1c2ccccc2CCc2ccccc21	n
COc1ccc2cc1Oc1ccc(cc1)CC1c3c(cc(OC)c4c3Oc3cc5c(cc3O4)CCNC5C2)CCN1C (centres undefined)	n
c1ccc2c(c1)CN1CCCC1CN2 (centres undefined)	n
COC1=C(C)C(=O)C2C(C1=O)C(c1ccc(OC)c(OC)c1)[C@H]2C (some centres undefined)	n
COc1cc2c(cc1OC(=O)CC(C)O)C1C(OC2=O)C(OC(C)=O)C=C2CCN(C)[C@H]21 (some centres undefined)	n
NC(=O)c1cc2ccc(O)cc2o/c1=N/c1ccccc1	n
CC(=O)N(CC(=O)C(=O)NNc1ccoc1)c1ccc(Cl)cc1	n
C1=Cc2nc1c(-c1ccccc1)c1ccc([n-]1)c(-c1ccccc1)c1nc(c(-c3ccccc3)c3ccc([n-]3)c2-c2ccccc2)C=C1.[Zn+2]	n
CCc1ccc(CCN2CCCCC2)nc1	n
C/C(=C1/N=C(c2cc([N+](=O)[O-])ccc2Cl)N(c2ccc(Br)cc2)C1=O)c1ccc(N(CCC#N)CCC#N)cc1C	n

Exercise: In this assay, the call recorded for Nc1ncnc2c1cnn2COCC(O)CO (centres undefined) was what?
Solution: n

Exercise: In this assay, the call recorded for Cc1ccc(NC(=O)C(=O)CC(=O)C2CCOC2=O)c(C)c1 (centres undefined) was what?
Solution: n

Exercise: In this assay, the call recorded for `O=C1NC(=O)C(=O)C(c2nc3ccccc3s2)C1=O` was what?
Solution: n

Exercise: In this assay, the call recorded for `CN(CCNC(=O)c1c[nH]c2c1ccc1ccccc12)CCNC(=O)c1c[nH]c2c1ccc1ccccc12` was what?
Solution: n

Exercise: In this assay, the call recorded for `CCN(CC)C(=S)SS(=O)(=O)c1ccccc1[N+](=O)[O-]` was what?
Solution: n

Exercise: In this assay, the call recorded for `Cc1nc(-n2nc(-c3ccccc3)cc2-c2ccccc2)sc1C(=O)/C=C/c1ccc([N+](=O)[O-])cc1` was what?
Solution: n

Exercise: In this assay, the call recorded for `CCSC1=N/C(=C\c2ccco2)C(NN)=N1` was what?
Solution: n

Exercise: In this assay, the call recorded for `CCOP(=O)(/C=C/n1cc(C)c(=O)[nH]c1=O)OCC` was what?
Solution: n
